Each record here notes measured percent inhibition of Factor 11 activity, relative to PBS control.
Tested on: Factor 11 activity
assayDetails: Factor 11 protein activity, F11 assay based on clotting time (Example 45)
Format: in vivo, cynomolgus monkeys
runConditions: day 85; escalating dose regimen
measuredMetric: percent inhibition of Factor 11 activity, relative to PBS control (%)

substance: ISIS 416850: MOE gapmer, nucleobases 1275 to 1318 of SEQ ID NO: 1 (Table 8) (antisense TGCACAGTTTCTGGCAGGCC; MOE gapmer, wing and gap sizes not given here)
observedResult: 64
--
substance: ISIS 416838: MOE gapmer, nucleobases 1018 to 1042 of SEQ ID NO: 1 (Table 6) (antisense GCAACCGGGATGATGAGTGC; MOE gapmer, wing and gap sizes not given here)
observedResult: 10
--
substance: ISIS 417002: MOE gapmer, nucleobases 1275 to 1318 of SEQ ID NO: 1 (Table 8) (antisense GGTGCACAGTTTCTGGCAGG; MOE gapmer, wing and gap sizes not given here)
observedResult: 23
--
substance: ISIS 416858: MOE gapmer, nucleobases 1275 to 1318 of SEQ ID NO: 1 (Table 8) (antisense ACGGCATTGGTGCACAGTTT; MOE gapmer, wing and gap sizes not given here)
observedResult: 78
--
substance: ISIS 416864: MOE gapmer, nucleobases 1275 to 1318 of SEQ ID NO: 1 (Table 8) (antisense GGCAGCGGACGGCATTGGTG; MOE gapmer, wing and gap sizes not given here)
observedResult: 8

* * *

assayDetails: Hematology assays in cynomolgus monkeys (Example 45)
Type: in vivo
runConditions: day 50; escalating dose regimen
Method: Groups, each consisting of two male and three female monkeys, were injected subcutaneously with ISIS 416838, ISIS 416850, ISIS 416858, ISIS 416864, or ISIS 417002 in escalating doses. […] Body weights were measured weekly. […]
measuredMetric: MCHC (g/dL)

substance: ISIS 416858: MOE gapmer, nucleobases 1275 to 1318 of SEQ ID NO: 1 (Table 8) (antisense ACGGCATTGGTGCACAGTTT; MOE gapmer, wing and gap sizes not given here)
measuredMetric: MCHC
observedResult: 30

substance: ISIS 416864: MOE gapmer, nucleobases 1275 to 1318 of SEQ ID NO: 1 (Table 8) (antisense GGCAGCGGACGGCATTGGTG; MOE gapmer, wing and gap sizes not given here)
measuredMetric: MCHC
observedResult: 28

substance: ISIS 416850: MOE gapmer, nucleobases 1275 to 1318 of SEQ ID NO: 1 (Table 8) (antisense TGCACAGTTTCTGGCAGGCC; MOE gapmer, wing and gap sizes not given here)
measuredMetric: MCHC
observedResult: 28

substance: ISIS 416838: MOE gapmer, nucleobases 1018 to 1042 of SEQ ID NO: 1 (Table 6) (antisense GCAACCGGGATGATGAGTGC; MOE gapmer, wing and gap sizes not given here)
measuredMetric: MCHC
observedResult: 28

substance: ISIS 417002: MOE gapmer, nucleobases 1275 to 1318 of SEQ ID NO: 1 (Table 8) (antisense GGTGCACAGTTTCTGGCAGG; MOE gapmer, wing and gap sizes not given here)
measuredMetric: MCHC
observedResult: 29

* * *

Tested on: blood coagulation
assayDetails: PT and aPTT assay in cynomolgus monkeys (Example 46)
Type: in vivo
runConditions: Day 38; platelet poor plasma; relative to PBS group
Strand notation (5' to 3'): a small letter for the sugar, then the base; units joined by * are phosphorothioate-linked, units joined directly phosphodiester-linked; [ ] holds rarer units or linkages, { } end groups; capitals alone tell only the bases. e = 2'-O-(2-methoxyethyl) (MOE); [5mC] = 5-methylcytosine; d = 2'-deoxy (DNA)

substance: ISIS 416850: MOE gapmer, nucleobases 1275 to 1318 of SEQ ID NO: 1 (Table 8) (antisense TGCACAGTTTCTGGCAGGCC; MOE gapmer, wing and gap sizes not given here)
PT ratio (INR): 1.01
//
substance: ISIS 449707: 3-8-3, 4-8-4, 2-10-2, 3-10-3 or 4-10-4 MOE microwalk gapmer (Table 46) (antisense e[5mC]*eA*e[5mC]*eA*dG*dT*dT*dT*d[5mC]*dT*dG*dG*e[5mC]*eA*eG*eG)
PT ratio (INR): 1.00

* * *

Tested on: human Factor 11 mRNA
assayDetails: Dose-dependent inhibition of human Factor 11 in HepG2 cells, lipofectin 9.375-75 nM (Example 4)
Format: cell-based
runConditions: 75 nM, relative to untreated control cells
Strand notation (5' to 3'): a small letter for the sugar, then the base; units joined by * are phosphorothioate-linked, units joined directly phosphodiester-linked; [ ] holds rarer units or linkages, { } end groups; capitals alone tell only the bases. e = 2'-O-(2-methoxyethyl) (MOE); [5mC] = 5-methylcytosine; d = 2'-deoxy (DNA)
Would you mind labelling by percent inhibition of Factor 11 at 75 nM? At or over 80% is condition met, under is condition not met.

substance: 416989 (antisense eG*eA*dG*dA*dT*dT*d[5mC]*dT*dT*dT*dG*dG*dG*d[5mC]*d[5mC]*eA*eT*eT*e[5mC]*e[5mC]) [compound 416989]
targetOrSystem: human Factor 11 mRNA
labelValue: condition met
--
substance: 416838 (antisense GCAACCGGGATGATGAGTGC; 5-10-5 gapmer, further chemistry not given here) [compound 416838]
targetOrSystem: human Factor 11 mRNA
labelValue: condition met
--
substance: 416925 (antisense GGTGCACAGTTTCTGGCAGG; 3-14-3 gapmer chemistry, further chemistry not given here) [compound 416925]
targetOrSystem: human Factor 11 mRNA
labelValue: condition not met
--
substance: 413474 (antisense eA*eG*e[5mC]*eA*eA*d[5mC]*d[5mC]*dG*dG*dG*dA*dT*dG*dA*dT*eG*eA*eG*eT*eG) [compound 413474]
targetOrSystem: human Factor 11 mRNA
labelValue: condition not met
--
substance: 412206 (antisense e[5mC]*e[5mC]*eG*eT*eG*d[5mC]*dA*dT*d[5mC]*dT*dT*dT*d[5mC]*dT*dT*eG*eG*e[5mC]*eA*eT) [compound 412206]
targetOrSystem: human Factor 11 mRNA
labelValue: condition met
--
substance: 416972 (antisense eT*eA*dT*dG*d[5mC]*d[5mC]*d[5mC]*dT*dT*d[5mC]*dA*dT*dG*dT*d[5mC]*eT*eA*eG*eG*eT) [compound 416972]
targetOrSystem: human Factor 11 mRNA
labelValue: condition not met
--
substance: 416892 (antisense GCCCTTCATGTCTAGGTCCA; 3-14-3 chimeric gapmer, further chemistry not given here) [compound 416892]
targetOrSystem: human Factor 11 mRNA
labelValue: condition met
--
substance: 412203 (antisense eA*eA*eT*eG*eT*d[5mC]*dT*dT*dT*dG*dT*dT*dG*d[5mC]*dA*eA*eG*e[5mC]*eG*e[5mC]) [compound 412203]
targetOrSystem: human Factor 11 mRNA
labelValue: condition not met
--
substance: 416969 (antisense eG*e[5mC]*d[5mC]*d[5mC]*dT*dT*d[5mC]*dA*dT*dG*dT*d[5mC]*dT*dA*dG*eG*eT*e[5mC]*e[5mC]*eA) [compound 416969]
targetOrSystem: human Factor 11 mRNA
labelValue: condition not met
--
substance: 416827 (antisense eT*eA*eT*eG*e[5mC]*d[5mC]*d[5mC]*dT*dT*d[5mC]*dA*dT*dG*dT*d[5mC]*eT*eA*eG*eG*eT) [compound 416827]
targetOrSystem: human Factor 11 mRNA
labelValue: condition not met

* * *

Parameters: species or system Sprague-Dawley rats
runConditions: rat, in vivo
Each record here notes measured Half-life in the liver and kidney.

substance: 416925 (antisense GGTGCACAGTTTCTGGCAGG; 3-14-3 gapmer chemistry, further chemistry not given here) [compound 416925]
Half-life in the liver and kidney (days): 12
//
substance: 416838 (antisense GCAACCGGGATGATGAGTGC; 5-10-5 gapmer, further chemistry not given here) [compound 416838]
Half-life in the liver and kidney (days): 13
//
substance: 416850 (antisense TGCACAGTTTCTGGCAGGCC; 5-10-5 gapmer, further chemistry not given here) [compound 416850]
Half-life in the liver and kidney (days): 18

* * *

runConditions: mouse, in vivo, sc, 50 mg/kg
e = 2'-O-(2-methoxyethyl) (MOE); d = 2'-deoxy (DNA)

substance: ISIS 445509: 5-8-5 or 6-8-6 MOE microwalk gapmer (Table 44) (antisense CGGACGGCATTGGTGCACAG; sugars from the 5' end e6 d8 e6, backbone and methylation of C not given here)
ALT / IU/L: 80
//
substance: ISIS 445513: 5-8-5 or 6-8-6 MOE microwalk gapmer (Table 44) (antisense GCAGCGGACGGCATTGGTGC; sugars from the 5' end e6 d8 e6, backbone and methylation of C not given here)
ALT / IU/L: 37

* * *

assayDetails: Hematology assays in cynomolgus monkeys (Example 46)
Type: in vivo
runConditions: Day 17
Strand notation (5' to 3'): a small letter for the sugar, then the base; units joined by * are phosphorothioate-linked, units joined directly phosphodiester-linked; [ ] holds rarer units or linkages, { } end groups; capitals alone tell only the bases. e = 2'-O-(2-methoxyethyl) (MOE); [5mC] = 5-methylcytosine; d = 2'-deoxy (DNA)
Each record here notes measured MCHC.

substance: ISIS 449708: 3-8-3, 4-8-4, 2-10-2, 3-10-3 or 4-10-4 MOE microwalk gapmer (Table 46) (antisense eA*e[5mC]*eA*dG*dT*dT*dT*d[5mC]*dT*dG*dG*e[5mC]*eA*eG)
unitAbbrev: g/dL
MCHC: 30.7
--
substance: ISIS 445531: 5-8-5 or 6-8-6 MOE microwalk gapmer (Table 44) (antisense eG*eG*e[5mC]*eA*eT*dT*dG*dG*dT*dG*d[5mC]*dA*d[5mC]*eA*eG*eT*eT*eT)
unitAbbrev: g/dL
MCHC: 29.5
--
substance: ISIS 416850: MOE gapmer, nucleobases 1275 to 1318 of SEQ ID NO: 1 (Table 8) (antisense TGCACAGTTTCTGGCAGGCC; MOE gapmer, wing and gap sizes not given here)
unitAbbrev: g/dL
MCHC: 31.3
--
substance: ISIS 416858: MOE gapmer, nucleobases 1275 to 1318 of SEQ ID NO: 1 (Table 8) (antisense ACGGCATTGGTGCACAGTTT; MOE gapmer, wing and gap sizes not given here)
unitAbbrev: g/dL
MCHC: 29.9
--
substance: ISIS 449710: 3-8-3, 4-8-4, 2-10-2, 3-10-3 or 4-10-4 MOE microwalk gapmer (Table 46) (antisense e[5mC]*eA*e[5mC]*dA*dG*dT*dT*dT*d[5mC]*dT*dG*dG*d[5mC]*eA*eG*eG)
unitAbbrev: g/dL
MCHC: 30.7
--
substance: ISIS 449707: 3-8-3, 4-8-4, 2-10-2, 3-10-3 or 4-10-4 MOE microwalk gapmer (Table 46) (antisense e[5mC]*eA*e[5mC]*eA*dG*dT*dT*dT*d[5mC]*dT*dG*dG*e[5mC]*eA*eG*eG)
unitAbbrev: g/dL
MCHC: 30.0
--
substance: ISIS 445522: 5-8-5 or 6-8-6 MOE microwalk gapmer (Table 44) (antisense eG*e[5mC]*eA*e[5mC]*eA*dG*dT*dT*dT*d[5mC]*dT*dG*dG*e[5mC]*eA*eG*eG*e[5mC])
unitAbbrev: g/dL
MCHC: 30.9
--
substance: ISIS 449709: 3-8-3, 4-8-4, 2-10-2, 3-10-3 or 4-10-4 MOE microwalk gapmer (Table 46) (antisense eG*e[5mC]*eA*e[5mC]*dA*dG*dT*dT*dT*d[5mC]*dT*dG*dG*d[5mC]*eA*eG*eG*e[5mC])
unitAbbrev: g/dL
MCHC: 30.7
--
substance: ISIS 449711: 3-8-3, 4-8-4, 2-10-2, 3-10-3 or 4-10-4 MOE microwalk gapmer (Table 46) (antisense eA*e[5mC]*dA*dG*dT*dT*dT*d[5mC]*dT*dG*dG*d[5mC]*eA*eG)
unitAbbrev: g/dL
MCHC: 29.9
